test: uptake of β-carotene by blood neutrophils and their subcellular fractions; type: in vivo, dog (Beagle); details: dog, blood neutrophils, po; 50 or 100 mg daily; read-out: time of maximal uptake by blood neutrophils
Measured Property: Tmax

The recorded Tmax for "CC1=C(/C=C/C(C)=C/C=C/C(C)=C/C=C/C=C(C)/C=C/C=C(C)/C=C/C2=C(C)CCCC2(C)C)C(C)(C)CCC1" is ≤ 240 h
